# system.tested: Cytochrome P450 1A2 (Homo sapiens, UniProt P05177)
# Sequence (P05177 whole entry): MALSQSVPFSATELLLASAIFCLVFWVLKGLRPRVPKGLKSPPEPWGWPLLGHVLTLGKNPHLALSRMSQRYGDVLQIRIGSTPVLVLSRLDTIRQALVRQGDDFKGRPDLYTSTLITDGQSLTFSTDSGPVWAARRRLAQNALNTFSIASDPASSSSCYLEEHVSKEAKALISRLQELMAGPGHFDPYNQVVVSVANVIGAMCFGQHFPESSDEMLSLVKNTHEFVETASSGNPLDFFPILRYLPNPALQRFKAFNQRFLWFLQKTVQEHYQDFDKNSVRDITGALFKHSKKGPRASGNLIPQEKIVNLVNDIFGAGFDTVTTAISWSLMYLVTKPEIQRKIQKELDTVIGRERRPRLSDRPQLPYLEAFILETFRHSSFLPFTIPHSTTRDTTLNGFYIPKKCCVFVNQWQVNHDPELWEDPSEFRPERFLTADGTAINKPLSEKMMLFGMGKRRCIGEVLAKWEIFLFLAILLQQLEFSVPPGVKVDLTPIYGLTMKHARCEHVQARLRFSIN
pIC50: −log10 of the molar value.
Multiple publications report pIC50 for Cytochrome P450 1A2 (Homo sapiens, UniProt P05177); what follows is a combined list.

Request: Quick one: pIC50 for COc1ccc(CN(Cc2ccc(Cl)c(Cl)c2)C(=O)c2ccc3nc(N)sc3c2)cc1OC ?
Response: < 4.60

Request: Moving on to CNC(=O)[C@@]12C[C@@H]1[C@@H](n1cnc3c(NCCc4ccc(OC)c(O)c4)nc(OCC(C)C)nc31)[C@H](O)[C@@H]2O
Response: 6.60

Request: Moving on to CC(C)N1CCN(C(=O)c2ccc(CN3CCOCC3)cc2)CC1.O=C(O)/C=C\C(=O)O
Response: < 4.40

Request: Moving on to COc1ccc([C@]2(O)CC[C@H](N3CC[C@@H](NC(=O)CNC(=O)c4cccc(C(F)(F)F)c4)C3)CC2)cn1.CS(=O)(=O)O
Response: < 4.60

Request: Moving on to O=C(NCCO)c1ccc(-n2c3ccc(F)cc3c3[nH]ncc32)cc1
Response: 5.10

Request: Moving on to C[C@H](COc1ccc(C2=NNC(=O)C3CC23)cc1)CN1CCC[C@H]1C (mixture of isomers)
Response: < 4.52

Request: Moving on to Cn1cnc(S(=O)(=O)N2C[C@@H]3[C@H](C2)[C@@]3(CNC(=O)c2ccc(Cl)cc2Cl)c2ccccn2)c1
Response: < 4.52

Request: Moving on to CC(C)CN(CC[C@H](Cc1ccccc1)NC(=O)OCc1cncs1)C(=O)[C@H](CCN1CCOCC1)NC(=O)N(C)Cc1csc(C(C)C)n1
Response: < 4.60

Request: Moving on to O=C(Nc1nc2cccc(C3CCC4(CC3)CCN(C(=O)[C@@H]3CC3(F)F)CC4)n2n1)C1CC1
Response: < 4.00

Request: Moving on to C[C@H](NC(=O)[C@H]1CCCCN1CCOc1ccccc1)c1ccc(C(=O)O)cc1.Cl
Response: < 5.00

Request: Moving on to CN(C)C(=O)c1ccc(N(Cc2ccc(O)cc2)C(=O)c2ccc(O)cc2O)cc1
Response: < 4.70

Request: Moving on to CC(C)C[C@@H]1C(=O)N[C@H](C2Cc3ccccc3C2)C(=O)N1[C@@H](C(=O)N(C)C)c1ccc(F)cc1F
Response: < 4.00

Request: Moving on to Fc1ccc(Nc2n[nH]c3cccnc23)cc1Cl
Response: > 7.00

Request: Moving on to Cc1cc(C(=O)N[C@H]2CC[C@@H](NC(=O)c3cc(F)cnc3Oc3cccc(-c4ccc(CCCN5C[C@@H](C)N[C@@H](C)C5)cc4)c3)CC2)nn1C
Response: < 6.00

Request: Moving on to CN1CCc2ccc(NS(=O)(=O)c3ccc(-c4ccc(Cl)cc4)cc3)cc2CC1
Response: 4.60

Request: Moving on to CCC1(C)NC(=O)c2cc(S(=O)(=O)Nc3ccc(F)cc3F)cc(Cl)c2NC1=O (configuration not stated)
Response: < 4.52

Request: Moving on to O=C([C@@H]1C[C@H](N2CCN(c3ncccn3)CC2)CN1)N1CCC(F)(F)C1
Response: < 4.52
